test: recombinant UMI read abundance after kanamycin selection (control-corrected) (log10(CPM+1)); higher = more efficient recombination; extreme values may be limits of the assay; sequences stand for … in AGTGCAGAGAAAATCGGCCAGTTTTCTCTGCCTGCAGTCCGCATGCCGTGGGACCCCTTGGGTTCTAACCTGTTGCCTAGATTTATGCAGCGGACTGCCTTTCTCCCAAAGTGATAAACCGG…AGGTTGGTTTCACT; site = the 11-nt donor
Output satisfied for recombinant UMI read abundance (log10) not less than 0.02; output not satisfied otherwise.

Task: Could you tell me if the measured recombinant UMI read abundance (log10) of AGCCTAACATGGACCGGTTTTCCCGGTAATCCGTATTTGTT (site AGCCTATCTAA) reaches 0.02 or more?
Result: not satisfied

Task: hey, is recombinant UMI read abundance (log10) for this one >= 0.02? CAGGCGACATGGACCGGTTTTCCCGGTAATCCGTATTTGGG (site CAGTCGACTCC)
Result: not satisfied

Task: Dear colleague, could you confirm whether TATTTGCCATGGACCGGTTTTCCCGGTAATCCGTATTTGTG (site TATTTGTCTCA) has recombinant UMI read abundance (log10) at or above 0.02?
Result: satisfied

Task: Form field: recombinant UMI read abundance (log10) at least 0.02? Entry: TGTTCCCCATGGACCGGTTTTCCCGGTAATCCGTATTTGTT (site TGTTCCCCTCA)
Result: not satisfied

Task: I'd appreciate it if you could say whether GAGCTCTCATGGACCGGTTTTCCCGGTAATCCGTATTTGAT (site GAGCTCCCTAT) has recombinant UMI read abundance (log10) at least equal to 0.02.
Result: satisfied

Task: Does recombinant UMI read abundance (log10) meet or surpass 0.02 for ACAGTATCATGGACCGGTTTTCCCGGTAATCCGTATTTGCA (site ACAGTCTCTAG) ?
Result: not satisfied

Task: Given the entry TGTGCCCCATGGACCGGTTTTCCCGGTAATCCGTATTTGTA (site TGTTCCCCTTA) , answer whether its recombinant UMI read abundance (log10) meets or surpasses 0.02.
Result: not satisfied

###

experiment: recombinant barcode read abundance after kanamycin selection (control-corrected) (log10(CPM+1)); higher = more efficient recombination; sequences stand for … in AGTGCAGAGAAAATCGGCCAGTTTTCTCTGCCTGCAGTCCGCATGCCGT…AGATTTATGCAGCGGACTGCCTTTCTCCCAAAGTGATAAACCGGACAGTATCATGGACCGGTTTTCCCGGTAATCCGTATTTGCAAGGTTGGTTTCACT; site = the 11-nt target
Please go through the items and note down their recombinant barcode read abundance (log10).
Keep the answer to the number alone.

Task: Dear colleague, I am looking for the recorded recombinant barcode read abundance (log10) of the following sequence: CCGCGCTCTTGGGTTCTAACCTGTTGCTG (site CCGCGCTCTCA)
Result: 0.379

Task: Given the entry TTAAGACCTTGGGTTCTAACCTGTTGCCT (site TTAAGCCCTAG) , report its measured recombinant barcode read abundance (log10).
Result: 0.336

Task: # get_value(readout='recombinant barcode read abundance (log10)', item= GTCGGAACTTGGGTTCTAACCTGTTGCCT (site GTCGGCACTAG) )
Result: 0.329

Task: Report recombinant barcode read abundance (log10) for AGGGATCCTTGGGTTCTAACCTGTTGCGG (site AGGGATCCTCC) please.
Result: 2.7

Task: Look up recombinant barcode read abundance (log10) for this sequence: CTACCCTCTTGGGTTCTAACCTGTTGCCT (site CTACCCTCTAG)
Result: 2.4

Task: Record request: recombinant barcode read abundance (log10) value, item GTGGCTTCTTGGGTTCTAACCTGTTGCCT (site GCGGCTTCTAG)
Result: 0.248

Task: Which recombinant barcode read abundance (log10) is listed for TAAAAGACTTGGGTTCTAACCTGTTGCCT (site TAAAAGACTAG) ?
Result: 0.307

Task: Record request: recombinant barcode read abundance (log10) value, item GGGTCCACTTGGGTTCTAACCTGTTGCGG (site GGGTCCACTCC)
Result: 2.02

Task: Suppose we examine the sequence ACGTGTCCTTGGGTTCTAACCTGTTGCGG (site ACGTGTCCTCC) ; what recombinant barcode read abundance (log10) value has been reported?
Result: 1.88

Task: Please look up its recombinant barcode read abundance (log10): CTCCGACCTTGGGTTCTAACCTGTTGCTT (site CTCCGACCTAA)
Result: 1.67

Task: So what's the measured recombinant barcode read abundance (log10) for this one? TCCGCTTCTTGGGTTCTAACCTGTTGCTT (site TCCGCTTCTAA)
Result: 0.0659

Task: # get_value(readout='recombinant barcode read abundance (log10)', item= CTCCAGGCTTGGGTTCTAACCTGTTGCGG (site CTCCAGGCTCC) )
Result: 1.55

###

assay: recombinant UMI read abundance after kanamycin selection (control-corrected) (log10(CPM+1)); higher = more efficient recombination; extreme values may be limits of the assay; sequences stand for … in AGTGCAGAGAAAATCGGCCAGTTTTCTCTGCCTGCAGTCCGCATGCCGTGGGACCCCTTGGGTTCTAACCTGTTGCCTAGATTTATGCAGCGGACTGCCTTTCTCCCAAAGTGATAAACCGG…AGGTTGGTTTCACT; site = the 11-nt donor
quantity kind: recombinant UMI read abundance (log10)

Task: For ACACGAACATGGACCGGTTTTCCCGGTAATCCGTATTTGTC (site AGACGAACTGA) , what is its reported recombinant UMI read abundance (log10)?
Result: 0

Task: I would be grateful if you could share the reported recombinant UMI read abundance (log10) for ATTAGAACATGGACCGGTTTTCCCGGTAATCCGTATTTGGC (site ATTAGAACTGC) .
Result: 1.83

Task: Item CGGAGGACATGGACCGGTTTTCCCGGTAATCCGTATTTGCC (site CGGAGGACTGG) has what recorded recombinant UMI read abundance (log10)?
Result: 2.76

Task: What value of measured recombinant UMI read abundance (log10) is listed for ATGTCGCCATGGACCGGTTTTCCCGGTAATCCGTATTTGCC (site ATGTCGCCTGG) ?
Result: 0

Task: I have this sequence here, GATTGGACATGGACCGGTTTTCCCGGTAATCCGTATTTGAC (site CATTGGACTGT) , and I need its recorded recombinant UMI read abundance (log10).
Result: 0.263

Task: Please report the recorded recombinant UMI read abundance (log10) for GAAAAGGCATGGACCGGTTTTCCCGGTAATCCGTATTTGTT (site GAAAAGGCTAA) .
Result: 2.58

Task: # get_value(readout='recombinant UMI read abundance (log10)', item= CCTGTCGCATGGACCGGTTTTCCCGGTAATCCGTATTTGAG (site CCTGTCGCTCT) )
Result: 0.909

Task: Reported recombinant UMI read abundance (log10), sequence GTTGTTGCATGGACCGGTTTTCCCGGTAATCCGTATTTGGT (site GTTGTTCCTAC) : ____
Result: 0.00209

Task: What measured recombinant UMI read abundance (log10) goes with CGTTTGTCATGGACCGGTTTTCCCGGTAATCCGTATTTGCT (site CGTTTGCCTAG) ?
Result: 0

Task: // recombinant UMI read abundance (log10) lookup, key: ACACGTACATGGACCGGTTTTCCCGGTAATCCGTATTTGTC (site ACACGCACTGA)
Result: 0.199

Task: For the sequence shown here, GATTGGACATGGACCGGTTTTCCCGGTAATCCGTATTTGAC (site GATTGCACTGT) , give the reported recombinant UMI read abundance (log10).
Result: 0

###

experiment: recombinant UMI read abundance after kanamycin selection (control-corrected) (log10(CPM+1)); higher = more efficient recombination; extreme values may be limits of the assay; sequences stand for … in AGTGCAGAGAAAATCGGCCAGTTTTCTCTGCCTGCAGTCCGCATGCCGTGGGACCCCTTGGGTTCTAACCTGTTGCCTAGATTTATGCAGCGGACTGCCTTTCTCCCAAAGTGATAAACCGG…AGGTTGGTTTCACT; site = the 11-nt donor
Note to self: values exactly at 1 are Condition met. So recombinant UMI read abundance (log10) at or above 1 is Condition met, below is Condition not met.

Task: Is it the case that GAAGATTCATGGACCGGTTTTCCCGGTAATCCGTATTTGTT (site GAAGATTCTAT) has recombinant UMI read abundance (log10) reaching or exceeding 1?
Result: Condition met

Task: Quick check: does TAGGATACATGGACCGGTTTTCCCGGTAATCCGTATTTGCA (site TAGGATACTTG) have recombinant UMI read abundance (log10) greater than or equal to 1?
Result: Condition met

Task: Record CGGGATCCATGGACCGGTTTTCCCGGTAATCCGTATTTGTA (site CGGGATCCTTA) ; criterion: recombinant UMI read abundance (log10) no lower than 1. Met?
Result: Condition met

Task: Does recombinant UMI read abundance (log10) meet or surpass 1 for AGGACTGCATGGACCGGTTTTCCCGGTAATCCGTATTTGAC (site AGGACTGCTGT) ?
Result: Condition met

Task: Dear colleague, could you confirm whether GGTAAGTCATGGACCGGTTTTCCCGGTAATCCGTATTTGTT (site GGTATGTCTAA) has recombinant UMI read abundance (log10) at or above 1?
Result: Condition not met

Task: For this sequence, is measured recombinant UMI read abundance (log10) 1 or higher? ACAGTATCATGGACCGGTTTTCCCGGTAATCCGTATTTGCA (site ACAGTGTCTTG)
Result: Condition met

Task: Threshold query (recombinant UMI read abundance (log10) >= 1) on AATTTAACATGGACCGGTTTTCCCGGTAATCCGTATTTGCT (site AATTTAACTAG)
Result: Condition met

Task: Decide: is the reported value of recombinant UMI read abundance (log10) for ATAGTTTCATGGACCGGTTTTCCCGGTAATCCGTATTTGCA (site ATAGTTTCTTG) equal to or greater than 1?
Result: Condition met

Task: Does recombinant UMI read abundance (log10) meet or surpass 1 for GCAGAGACATGGACCGGTTTTCCCGGTAATCCGTATTTGCG (site TCAGAGACTCG) ?
Result: Condition met

Task: recombinant UMI read abundance (log10) >= 1 for GGTGTTCCATGGACCGGTTTTCCCGGTAATCCGTATTTGTT (site GGTGTTCCTAA) ?
Result: Condition not met

Task: State whether the measured recombinant UMI read abundance (log10) reaches 1, counting equality as reaching it, for CTAATAACATGGACCGGTTTTCCCGGTAATCCGTATTTGGA (site CTAATAACTTC)
Result: Condition met

Task: Decide: recombinant UMI read abundance (log10) of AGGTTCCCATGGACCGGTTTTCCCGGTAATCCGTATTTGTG (site AGGTGCCCTCA) >= 1?
Result: Condition not met

Task: # bool: recombinant UMI read abundance (log10) of ACTTAATCATGGACCGGTTTTCCCGGTAATCCGTATTTGTA (site ACTTAATCTTA) >= 1
Result: Condition met

Task: I'd appreciate it if you could say whether CAGTCGACATGGACCGGTTTTCCCGGTAATCCGTATTTGGT (site CAGTCGACTCC) has recombinant UMI read abundance (log10) at least equal to 1.
Result: Condition not met

Task: Check the entry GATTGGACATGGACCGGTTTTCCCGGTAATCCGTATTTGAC (site GATTGGACTAT) : does recombinant UMI read abundance (log10) equal or exceed 1?
Result: Condition not met

Task: Decide: recombinant UMI read abundance (log10) of TGCAATTCATGGACCGGTTTTCCCGGTAATCCGTATTTGCC (site TCCAATTCTGG) >= 1?
Result: Condition not met

Task: Threshold query (recombinant UMI read abundance (log10) >= 1) on GCGAAAACATGGACCGGTTTTCCCGGTAATCCGTATTTGAT (site GCGAAAACTAG)
Result: Condition not met

Task: // inclusive: recombinant UMI read abundance (log10) at least 1? input: CGGGATTCATGGACCGGTTTTCCCGGTAATCCGTATTTGCC (site CGGGAGTCTGG)
Result: Condition met

Task: Check the entry ACTAGGGCATGGACCGGTTTTCCCGGTAATCCGTATTTGAG (site ACTAGGGCTCT) : does recombinant UMI read abundance (log10) equal or exceed 1?
Result: Condition met

Task: Test whether the sequence GTTTGCACATGGACCGGTTTTCCCGGTAATCCGTATTTGTA (site GTTTGCACTTA) records recombinant UMI read abundance (log10) of 1 or higher.
Result: Condition not met

Task: Is it the case that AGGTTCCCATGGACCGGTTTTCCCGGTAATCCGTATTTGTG (site AGATTCCCTCA) has recombinant UMI read abundance (log10) reaching or exceeding 1?
Result: Condition not met

Task: Form field: recombinant UMI read abundance (log10) at least 1? Entry: TCTAGTGCATGGACCGGTTTTCCCGGTAATCCGTATTTGGT (site ACTAGTGCTAC)
Result: Condition not met

Task: Record GTGCAAGCATGGACCGGTTTTCCCGGTAATCCGTATTTGGT (site GTGCATGCTAC) ; criterion: recombinant UMI read abundance (log10) no lower than 1. Met?
Result: Condition not met

Task: In plain terms: is recorded recombinant UMI read abundance (log10) at least 1 for TGGCAGGCATGGACCGGTTTTCCCGGTAATCCGTATTTGGC (site TGGCGGGCTGC) ?
Result: Condition not met

Task: Entry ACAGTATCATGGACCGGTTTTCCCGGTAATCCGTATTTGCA (site ATACTATCTTG) : is its recombinant UMI read abundance (log10) no less than 1?
Result: Condition met

Task: Hi team, for GCTACTGCATGGACCGGTTTTCCCGGTAATCCGTATTTGCA (site GCTACTGCTCG) , is the recorded recombinant UMI read abundance (log10) at or above 1?
Result: Condition not met

Task: State whether the measured recombinant UMI read abundance (log10) reaches 1, counting equality as reaching it, for CGAGTGTCATGGACCGGTTTTCCCGGTAATCCGTATTTGAC (site CGAGTGTCTGT)
Result: Condition met

Task: Would you say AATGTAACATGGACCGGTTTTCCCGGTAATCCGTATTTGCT (site AATGTAACTAT) shows recombinant UMI read abundance (log10) at minimum 1?
Result: Condition not met

Task: Check if recombinant UMI read abundance (log10) >= 1 (inclusive). Item: CGGACACCATGGACCGGTTTTCCCGGTAATCCGTATTTGCT (site CGGACACCTAG)
Result: Condition not met
